Exercise: state measured pEC50 for each of the molecules provided.
target: human mGlu2 receptor (Homo sapiens, UniProt Q14416); assay: FLIPR intracellular Ca2+ assay, potentiation of glutamate response in HEK293 clone expressing mGlu2 receptor, rGLAST and Galpha16; conditions: 1 μM glutamate added ten minutes after test compound, HEK293 cells with human mGlu2, rGLAST, Galpha16, read-out: EC50 values of potentiation effect to glutamate
Sequence (Q14416 19-872): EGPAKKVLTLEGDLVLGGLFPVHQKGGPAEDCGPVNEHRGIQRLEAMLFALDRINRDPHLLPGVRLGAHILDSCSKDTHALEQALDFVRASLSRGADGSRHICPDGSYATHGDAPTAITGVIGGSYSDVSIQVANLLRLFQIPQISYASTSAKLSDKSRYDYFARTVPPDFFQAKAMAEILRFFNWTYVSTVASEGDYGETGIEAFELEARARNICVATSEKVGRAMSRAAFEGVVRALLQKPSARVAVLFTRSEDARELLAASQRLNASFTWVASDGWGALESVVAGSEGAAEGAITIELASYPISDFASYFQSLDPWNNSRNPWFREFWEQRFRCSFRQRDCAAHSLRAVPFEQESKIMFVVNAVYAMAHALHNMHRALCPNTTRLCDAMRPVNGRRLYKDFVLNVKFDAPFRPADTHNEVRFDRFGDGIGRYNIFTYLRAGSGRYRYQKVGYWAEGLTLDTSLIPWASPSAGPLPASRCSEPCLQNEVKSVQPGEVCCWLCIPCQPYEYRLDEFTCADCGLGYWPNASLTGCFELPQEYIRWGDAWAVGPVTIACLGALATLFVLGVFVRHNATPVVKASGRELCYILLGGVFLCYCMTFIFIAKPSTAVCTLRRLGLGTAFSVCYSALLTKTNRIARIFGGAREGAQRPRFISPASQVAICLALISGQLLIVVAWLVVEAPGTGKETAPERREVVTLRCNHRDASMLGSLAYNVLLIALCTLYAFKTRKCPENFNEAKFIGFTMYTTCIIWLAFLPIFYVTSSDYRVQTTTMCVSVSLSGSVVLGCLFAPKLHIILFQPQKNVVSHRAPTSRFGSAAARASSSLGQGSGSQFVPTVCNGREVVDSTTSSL
pEC50: −log10 of the molar value.

Here are 3 molecules together with their reported answers.
CCCC(=O)c1ccc(NCc2n[nH]c3ccc(OC)cc23)cc1    5.00 to 6.00
CN(C)S(=O)(=O)c1cccc(NCc2c[nH]nc2-c2ccc(Cl)cc2)c1    5.00 to 6.00
CCCC(=O)c1ccc(OCc2n[nH]cc2-c2ccc(OC)cc2)cc1    > 6.00

Quick request: pEC50 for each listed item, please.
1. CCCCN1Cc2cc(OCc3c[nH]nc3-c3ccccc3)ccc2C1=O
2. CCCN1Cc2cc(NCc3n[nH]cc3-c3cccc(C(F)(F)F)c3)ccc2C1=O

Result block:
1: > 6.00; 2: 5.00 to 6.00

Quick request: pEC50 for each listed item, please.
1. CCCC(=O)c1ccc(NCc2cnc(Oc3ccc(OC)cc3)s2)cc1
2. CN(C)c1cccc(N(Cc2cccnc2)S(=O)(=O)CC(F)(F)F)c1
3. CCC(C)Oc1cccc(N(Cc2c[nH]nc2-c2ccc(C(F)(F)F)cc2)S(=O)(=O)CC(F)(F)F)c1 (stereo not drawn)
4. CCCC(=O)c1ccc(NCc2cnn(C)c2C)cc1
5. O=C1c2ccc(OCc3c[nH]nc3-c3ccc(Cl)cc3)cc2CN1CCC(F)(F)F

Result block:
1: 5.00 to 6.00; 2: 5.00 to 6.00; 3: 5.00 to 6.00; 4: 5.00 to 6.00; 5: > 6.00

---

Exercise: state measured pEC50 for each of the compounds provided.
molecular target: human mGlu2 receptor (Homo sapiens, UniProt Q14416); assay: FLIPR intracellular Ca2+ assay, potentiation of glutamate response in HEK293 clone expressing mGlu2 receptor, rGLAST and Galpha16; conditions: 1 μM glutamate added ten minutes after test compound, HEK293 cells with human mGlu2, rGLAST, Galpha16, read-out: EC50 values of potentiation effect to glutamate
pEC50: −log10 of the molar value.

Here are 3 compounds together with their reported answers.
CCC(CC)Oc1cccc(N(Cc2c[nH]nc2-c2ccc(C(F)(F)F)cc2)S(=O)(=O)CC(F)(F)F)c1    5.00 to 6.00
CCCCC(=O)c1ccc(OCc2c[nH]nc2-c2ccc(C(F)(F)F)cc2)cc1    > 6.00
CCCC(=O)c1ccc(NCc2c[nH]nc2C(C)(C)C)cc1    > 6.00

In the following, a different compound is considered.
The measured pEC50 associated with CCCC(=O)c1ccc(NCc2c(C)nn(-c3ccccc3)c2C)cc1 reads 5.00 to 6.00

---

Target: human mGlu2 receptor (Homo sapiens)
Assay: FLIPR intracellular Ca2+ assay, potentiation of glutamate response in HEK293 clone expressing mGlu2 receptor, rGLAST and Galpha16
Conditions: 1 μM glutamate added ten minutes after test compound, HEK293 cells with human mGlu2, rGLAST, Galpha16, read-out: EC50 values of potentiation effect to glutamate
From the text: The compounds of the present invention can be tested e.g. by evaluating intracellular Ca^2+ concentrations in cells permanently expressing human mGlu receptor, the rat glutamate transporter rGLAST and the Galpha16 subunit of the G-protein complex under standard conditions in a fluorometric imaging plate reader (FLIPR, Molecular Devices, Union City, Calif. 94587, USA) by measuring the response of the cells to a test compound in the absence of presence of glutamate. […]
pEC50: −log10 of the molar value.
metric-name: pEC50

O=C1c2ccc(OCc3c[nH]nc3-c3cccc(F)c3)cc2CN1CC(F)(F)F [Example 571]    > 6.00

Quick request: pEC50 for each listed item, please.
1. CCCN1Cc2cc(OCc3c[nH]nc3-c3cccc(F)c3)ccc2C1=O [Example 536]
2. CCCN1Cc2cc(NCc3c[nH]nc3-c3ccc(F)cc3)ccc2C1=O [Example 579]
3. O=C1c2ccc(OCc3c[nH]nc3-c3ccccc3)cc2CN1CCCC(F)(F)F [Example 553]
4. CCCC(C)Oc1cccc(NCc2c[nH]nc2-c2ccc(C(F)(F)F)cc2)c1 (centres unmarked) [Example 379]
5. CCCC(=O)c1ccc(OCc2c[nH]nc2-c2cccc(F)c2)cc1 [Example 497]
6. O=C(c1ccc(NCc2c[nH]nc2-c2ccc(C(F)(F)F)cc2)cc1)C(F)(F)F [Example 506]
7. CCCC(=O)c1ccc(NCc2c[nH]nc2-c2ccc(OC)cc2)cc1 [Example 209]

Result block:
1. > 6.00
2. > 6.00
3. > 6.00
4. 5.00 to 6.00
5. > 6.00
6. 5.00 to 6.00
7. > 6.00
